TEST METHOD NOTES: in vivo
Set-up: species or system Sprague-Dawley rats
EXPERIMENTAL PARAMETERS: male, Sprague-Dawley, rat, in vivo, po, 30 mg/kg

COMPOUND: C=C(F)C(=O)N1CCN(c2nc(OC[C@@H]3CCCN3C)nc3c2CCN(c2cccc4cccc(Cl)c24)C3)C[C@@H]1CC#N [Adagrasib]
concentration at 2 h / ng/g: 5050
